Molecular target: human GLP-1 receptor (human, UniProt P43220 24-463)
Experiment: cell-based or functional assay
Bridges are numbered along the chain shown (N, C = ends). Where no end group is shown, it is not given here. [ ]: non-standard residue; d: D form. The star is where a group is joined. Acetyl(2-(4-imidazolyl)) = O=C(Cc1c[nH]cn1)*; Aib = CC(C)(N)C(=O)O
value kind: In vitro activity relative to native peptide (%) vs. GLP-1
Give bare numbers, in %.

| binder | reading unit | test result |
| --- | --- | --- |
| H[Aib]QGTFTSDKSKYLDERACQDFVQWLLDGGPSSGAPPPS [triple agonist of SEQ ID NO: 40] | % | 75.2 |
| {Acetyl(2-(4-imidazolyl))}-[Aib]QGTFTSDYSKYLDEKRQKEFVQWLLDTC (bridge 15-19) [triple agonist of SEQ ID NO: 82] | % | 9.5 |
| {Acetyl(2-(4-imidazolyl))}-[Aib]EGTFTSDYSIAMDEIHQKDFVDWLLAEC (bridge 15-19) [triple agonist of SEQ ID NO: 84] | % | 4.2 |
| H[Aib]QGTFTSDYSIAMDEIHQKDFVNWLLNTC (bridge 16-20) [triple agonist of SEQ ID NO: 57] | % | 11.7 |
| H[Aib]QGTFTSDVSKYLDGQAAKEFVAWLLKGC [triple agonist of SEQ ID NO: 7] | % | 13.7 |

Batch lookup, In vitro activity relative to native peptide (%) vs. GLP-1 per entry.
1. Y[Aib]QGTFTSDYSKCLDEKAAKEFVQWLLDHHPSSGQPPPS (bridge 16-20) [triple agonist of SEQ ID NO: 68]
2. Y[Aib]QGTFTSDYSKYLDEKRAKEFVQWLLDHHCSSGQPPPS (bridge 16-20) [triple agonist of SEQ ID NO: 43]
3. H[Aib]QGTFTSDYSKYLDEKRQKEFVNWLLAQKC (bridge 16-20) [triple agonist of SEQ ID NO: 34]
4. [Acetyl(2-(4-imidazolyl))][Aib]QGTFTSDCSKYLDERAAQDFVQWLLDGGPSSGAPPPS [triple agonist of SEQ ID NO: 63]
5. H[Aib]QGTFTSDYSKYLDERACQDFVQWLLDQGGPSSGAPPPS [triple agonist of SEQ ID NO: 27]
6. [Acetyl(2-(4-imidazolyl))][Aib]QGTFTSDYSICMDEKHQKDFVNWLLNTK (bridge 16-20; not fully specified) [triple agonist of SEQ ID NO: 59]
7. Y[Aib]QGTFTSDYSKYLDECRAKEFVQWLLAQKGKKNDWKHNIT (bridge 16-20) [triple agonist of SEQ ID NO: 23]

1: 27.9; 2: 12.6; 3: 19.1; 4: 15.3; 5: 83.1; 6: 40.3; 7: 4.01

Values compiled from patent US20230302148A1.
